tested on: HCC-2998 colon; experiment: NCI tumour cell line growth inhibition, 48 h
# Lookup of reported TGI keyed by entry

Solved entries:
>>> obs_value("COC(=O)[C@H](CC(C)C)Nc1c(O)c2c(c(O)c1Cl)C(=O)C=CC2=O")
"> 10 µM"
>>> obs_value("O=C(C/C(=N/O)c1cc(-c2ccccc2)no1)c1ccccc1")
"> 100 µM"

response.value for COc1ccc2nc3ccc(OC)cc3c(SCc3ccccc3)c2c1 (field: TGI) = > 100 µM

response.value for CC(C)(C)C1=CC(=C2C(=O)C(=O)c3ccccc3C2=O)C=C(C(C)(C)C)C1=O (field: TGI) = > 100 µM
